I'd be grateful if you could share measured MIC for these entries.
Test system: Escherichia coli
Protocol summary: Antibacterial activity against Escherichia coli ATCC 25922 by broth microdilution method
Format: functional

Please fill in: MIC reported for CO[C@H]1CCCCCCCCC[C@@H](C)OC(=O)C(S(=O)(=O)c2ccccc2)CC1=O (stereo partly drawn) = > 64 µg/mL

# MIC of CC(=O)O[C@H]1CCCCCCCCC[C@@H](C)OC(=O)/C=C/C1=O = > 64 µg/mL

// MIC value for C[C@@H]1CCCCCCCCC[C@H](OC(=O)CCC(=O)OC(C)(C)C)C(=O)/C=C/C(=O)O1 : > 32 µg/mL

Entry C[C@@H]1CCCCCCCCC[C@H](OC(=O)CCC(=O)OC(C)(C)C)C(=O)c2[nH]ncc2C(=O)O1 — recorded MIC = > 64 µg/mL

Query C[C@@H]1CCCCCCCCC[C@H](OC(=O)CCC(=O)O)C(=O)/C=C/C(=O)O1 yields MIC of > 32 µg/mL

Short answer for CO[C@H]1CCCCCCCCC[C@@H](C)OC(=O)/C(C)=C/C1=O : MIC was > 64 µg/mL

Input CO[C@H]1CCCCCCCCC[C@@H](C)OC(=O)/C=C/C1=O . Output MIC: > 64 µg/mL

Measured MIC, C[C@@H]1CCCCCCCCC[C@H](O)C(=O)CC(SCC(F)(F)F)C(=O)O1 (stereo partly drawn) : > 64 µg/mL

====

Test system: Streptococcus pneumoniae
Protocol summary: Antibacterial activity against Streptococcus pneumoniae Pen9 IV381-221 by broth microdilution method
Assay type: functional
Study conditions: Streptococcus pneumoniae, Pen9 IV381-221; read-out: MIC
Parameter measured: MIC (µg/mL)
Report as a plain number; the unit µg/mL is understood.

Field MIC (entry Cc1nc2c([nH]1)CCCCCCCCC[C@@H](C)OC(=O)/C=C/2 ) reads 8

# compound CO[C@H]1CCCCCCCCC[C@@H](C)OC(=O)C2OC2C1=O (single isomer, unassigned; diastereomer 1) ; its MIC = 64

====

Tested on: Enterococcus faecalis
Protocol summary: Antibacterial activity against Enterococcus faecalis ATCC 29212 by broth microdilution method
Assay type: functional
Study conditions: Enterococcus faecalis, ATCC 29212; read-out: MIC
For each of the molecules below, state its MIC.
Just the number in µg/mL, nothing appended.

The molecule listed as C[C@@H]1CCCCCCCCC[C@H](OC(=O)CCC(=O)OC(C)(C)C)C(=O)CC(N2CCN(C)CC2)C(=O)O1 (some centres undefined) shows MIC equal to 4

Short answer for C[C@@H]1CCCCCCCCC[C@H](OC(=O)CCC(=O)OC(C)(C)C)C(=O)/C=C/C(=O)O1 : MIC was 2

Lab note: measured MIC of C[C@@H]1CCCCCCCCC[C@H](O)C(=O)/C=C/C(=O)O1 was 2

Given item CO[C@H]1CCCCCCCCC[C@@H](C)OC(=O)/C=C/C1=O , the value recorded as its MIC is 2

C[C@@H]1CCCCCCCCC[C@H](OC(=O)CCC(=O)O)C(=O)/C=C/C(=O)O1 has a reported MIC of 16

MIC recorded for this molecule, Cc1nc2c([nH]1)CCCCCCCCC[C@@H](C)OC(=O)/C=C/2 , is 32

====

Test system: Streptococcus pneumoniae
Protocol summary: Antibacterial activity against Streptococcus pneumoniae Pen9 IV381-221 by broth microdilution method
Format: functional
Study conditions: Streptococcus pneumoniae, Pen9 IV381-221; read-out: MIC
Parameter measured: log10(MIC) (log10 of the value in µg/mL)
Hey, these are logged values: log10 of MIC, µg/mL being the unit before logging.

The compound listed as C[C@@H]1CCCCCCCCC[C@H](OC(=O)CCC(=O)OC(C)(C)C)C(=O)CC(N2CCN(C)CC2)C(=O)O1 (some centres not stated) shows log10(MIC) equal to 0.30

For this compound ( C[C@@H]1CCCCCCCCC[C@H](O)C(=O)/C=C/C(=O)O1 ), measured log10(MIC) is 0.30

The reported log10(MIC) of the compound CO[C@H]1CCCCCCCCC[C@@H](C)OC(=O)C(Sc2ccccc2)CC1=O (some centres not stated) was 0.00

// C[C@@H]1CCCCCCCCC[C@H](OC(=O)CCC(=O)OC(C)(C)C)C(=O)/C=C/C(=O)O1 : log10(MIC) value = 0.00

Reported log10(MIC) ( COC1CCCCCCCCC[C@@H](C)NC(=O)/C=C/C1=O (single isomer, unassigned; diastereomer 1) ) = 0.90

Kindly note the recorded log10(MIC) for C[C@@H]1CCCCCCCCC[C@H](O)C(=O)CC(SCC(F)(F)F)C(=O)O1 (some centres not stated) , which is 0.60

For record CO[C@H]1CCCCCCCCC[C@@H](C)OC(=O)/C=C/C1=O the listed log10(MIC) is 0.30

Item: C[C@@H]1CCCCCCCCC[C@H](OC(=O)CCC(=O)OC(C)(C)C)C(=O)c2[nH]ncc2C(=O)O1 | log10(MIC): 1.51

Data point: C[C@@H]1CCCCCCCCC[C@H](OC(=O)CCC(=O)O)C(=O)/C=C/C(=O)O1 ; log10(MIC) = 0.90

Lab book: log10(MIC) of CC(=O)O[C@H]1CCCCCCCCC[C@@H](C)OC(=O)/C=C/C1=O noted as 0.60

log10(MIC) recorded for this compound, CO[C@H]1CCCCCCCCC[C@@H](C)OC(=O)C(S(=O)(=O)c2ccccc2)CC1=O (some centres not stated) , is 0.30
